Items are presented alongside their recorded inhibition at 10 µM.
# testedSystem: 11β-HSD2 (Homo sapiens)
# Construct: Human liver microsomes were used as a source of 11β-HSD2 enzyme; tissue XenoTech Lot No. 1710160; host or cells: human kidney microsomes, mixed gender (method text says human liver microsomes)
# Sequence (P80365 whole entry): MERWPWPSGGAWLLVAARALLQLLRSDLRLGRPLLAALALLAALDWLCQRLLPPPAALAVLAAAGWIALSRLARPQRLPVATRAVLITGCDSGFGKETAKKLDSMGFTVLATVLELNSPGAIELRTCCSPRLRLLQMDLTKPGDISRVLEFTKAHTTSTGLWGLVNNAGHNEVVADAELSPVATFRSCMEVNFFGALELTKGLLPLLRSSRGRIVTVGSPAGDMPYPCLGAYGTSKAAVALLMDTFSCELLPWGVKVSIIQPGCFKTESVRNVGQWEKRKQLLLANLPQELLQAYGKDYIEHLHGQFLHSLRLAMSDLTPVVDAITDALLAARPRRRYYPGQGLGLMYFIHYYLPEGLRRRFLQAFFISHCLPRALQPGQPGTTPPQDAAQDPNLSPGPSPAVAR
# assayComment: Inhibition of 11β-HSD2 (cortisol to cortisone, human microsomes, cortisol ELISA)
# Type: biochemical
# assayConditions: 2.5 h, 37 °C

| compound | inequalitySign | inhibition at 10 µM [%] |
| --- | --- | --- |
| CC(C)C1SC(NC2CCCC2)=NC1=O (stereo not drawn) | = | 38.6 |
| CCCC1SC(NC2CCCC2)=NC1=O (stereo not drawn) | = | 37.7 |
| CCC1SC(NC2CCCC2)=NC1=O (stereo not drawn) | = | 39.7 |
| O=C1N=C(NC2CCCC2)SC12CCC2 | = | 46.3 |
| O=C1N=C(NC2CCCC2)SC1c1ccccc1 (stereo not drawn) | = | 36.5 |
| CC1(C)SC(NC2CCCC2)=NC1=O | = | 36.6 |
| O=C1N=C(NC2CCCC2)SC1c1ccc(Br)cc1 (stereo not drawn) | = | 38.6 |
| O=C1N=C(NC2CCCC2)SC12CCCCC2 | < | 43 |
| CC1SC(NC2CCCC2)=NC1=O (stereo not drawn) | = | 40.3 |

====

# System: skin melanoma (SK-MEL-30)
# assayComment: MTS metabolic activity assay, SK-MEL-30 cells
# Assay type: cell-based
# assayConditions: Homo sapiens; SK-MEL-30, 100 µM, 72 h; read-out: Cell metabolic activity (MTS), % of untreated control
assayReadout: viability at 100 µM (%)

| compound | assayReadout | unitAbbrev | recordedMeasurement |
| --- | --- | --- | --- |
| O=C1N=C(NC2CCCC2)SC12CCCCC2 | viability at 100 µM | % | 105 |
| O=C1N=C(NC2CCCC2)SC1c1ccccc1 (stereo not drawn) | viability at 100 µM | % | 100 |
| CC1(C)SC(NC2CCCC2)=NC1=O | viability at 100 µM | % | 106 |
| CC1SC(NC2CCCC2)=NC1=O (stereo not drawn) | viability at 100 µM | % | 106 |
| CCC1SC(NC2CCCC2)=NC1=O (stereo not drawn) | viability at 100 µM | % | 105 |
| O=C1N=C(NC2CCCC2)SC1c1ccc(Br)cc1 (stereo not drawn) | viability at 100 µM | % | 93.1 |
| O=C1N=C(NC2CCCC2)SC12CCC2 | viability at 100 µM | % | 99 |
| CCCC1SC(NC2CCCC2)=NC1=O (stereo not drawn) | viability at 100 µM | % | 101 |
| CC(C)C1SC(NC2CCCC2)=NC1=O (stereo not drawn) | viability at 100 µM | % | 102 |

====

# Tested on: glioma (U-118 MG)
# assayComment: MTS metabolic activity assay, U-118 MG cells
# Type: cell-based
# assayConditions: Homo sapiens, U-118-MG; U118-MG, 200 µM, 72 h; read-out: Cell metabolic activity (MTS), % of untreated control
# Description: The BJ (CRL-2522), Caco-2 (HTB-37), PANC-1 (CRL-1469), U-118 MG (HTB-15), SK-MEL-30 (ACC 151), and MDA-MB-231 (HTB-26) cell lines were purchased from ATCC (Manassas, VA, USA) or DSMZ (Braunschweig, GERMANY). […]
Items are presented alongside their recorded viability at 200 µM.

| molecule | unitAbbrev | viability at 200 µM |
| --- | --- | --- |
| CC1SC(NC2CCCC2)=NC1=O (stereo not drawn) | % | 110 |
| CC1(C)SC(NC2CCCC2)=NC1=O | % | 112 |
| O=C1N=C(NC2CCCC2)SC12CCCCC2 | % | 121 |
| O=C1N=C(NC2CCCC2)SC1c1ccccc1 (stereo not drawn) | % | 110 |
| CCC1SC(NC2CCCC2)=NC1=O (stereo not drawn) | % | 113 |
| CCCC1SC(NC2CCCC2)=NC1=O (stereo not drawn) | % | 113 |
| O=C1N=C(NC2CCCC2)SC12CCC2 | % | 112 |
| O=C1N=C(NC2CCCC2)SC1c1ccc(Br)cc1 (stereo not drawn) | % | 87.3 |
| CC(C)C1SC(NC2CCCC2)=NC1=O (stereo not drawn) | % | 114 |
